Hello, the source for this data is ChEMBL document CHEMBL1146992, in case you need it.

Experimental Target: Mu-type opioid receptor (Rattus norvegicus, UniProt P33535)
Sequence (P33535 whole entry): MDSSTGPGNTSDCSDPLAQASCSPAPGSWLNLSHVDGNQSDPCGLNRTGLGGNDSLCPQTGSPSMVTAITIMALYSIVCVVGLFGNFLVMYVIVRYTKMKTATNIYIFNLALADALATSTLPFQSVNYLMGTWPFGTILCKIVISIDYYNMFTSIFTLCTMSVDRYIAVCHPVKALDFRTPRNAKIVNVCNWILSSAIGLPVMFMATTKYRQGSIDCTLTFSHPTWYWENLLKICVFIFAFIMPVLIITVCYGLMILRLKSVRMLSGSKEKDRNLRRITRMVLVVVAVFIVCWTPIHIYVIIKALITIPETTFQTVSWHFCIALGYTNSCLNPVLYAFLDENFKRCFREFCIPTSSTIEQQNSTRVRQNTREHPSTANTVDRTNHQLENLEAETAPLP
Mark 1 for Ki under 0.02 µM, 0 if at or over.

N[C@@H](Cc1ccccc1)C(=O)N1CCCC[C@H]1c1nc(-c2ccccc2)c[nH]1; 1

[in] Is the reported Ki for `Cc1cc(C(N)=O)cc(C)c1C[C@H](N)C(=O)N1Cc2ccccc2C[C@H]1c1nc(-c2ccccc2)c[nH]1` strictly below 0.02 µM?
[out] 1

[in] Is the reported Ki for `Cc1cc(O)cc(C)c1C[C@H](N)C(=O)N1Cc2ccccc2C[C@H]1c1nc(-c2ccccc2)c(C)[nH]1` strictly below 0.02 µM?
[out] 1

---

Experimental Target: Delta-type opioid receptor (Mus musculus, UniProt P32300)
Sequence (P32300 whole entry): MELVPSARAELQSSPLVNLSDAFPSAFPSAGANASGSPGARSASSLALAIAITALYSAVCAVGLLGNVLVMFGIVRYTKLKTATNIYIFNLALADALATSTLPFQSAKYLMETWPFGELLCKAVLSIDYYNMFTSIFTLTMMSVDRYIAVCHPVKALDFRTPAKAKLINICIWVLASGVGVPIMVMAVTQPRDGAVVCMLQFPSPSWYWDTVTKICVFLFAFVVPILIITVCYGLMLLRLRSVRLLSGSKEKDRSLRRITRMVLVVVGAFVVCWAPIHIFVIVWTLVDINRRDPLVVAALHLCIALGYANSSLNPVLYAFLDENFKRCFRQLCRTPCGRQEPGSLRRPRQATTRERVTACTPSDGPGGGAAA
Assay Name: Activity against delta opioid receptor by stimulation of [35S]GTP-gamma-S binding in CHO-hgamma cells
pEC50 reference
Scale for pEC50: -log10 of concentration given in mol/L; no unit attached.

Example cases with answers are listed next.
Cc1cc(O)cc(C)c1C[C@H](N)C(=O)N1CCCC[C@H]1c1nc(-c2ccccc2)c[nH]1; 7.43
Cc1cc(O)cc(C)c1C[C@H](N)C(=O)N1Cc2ccccc2C[C@H]1c1nc(-c2ccccc2)c[nH]1; 9.05
NC(=O)c1ccc(C[C@H](N)C(=O)N2CCCC[C@H]2c2nc(-c3ccccc3)c[nH]2)cc1; 6.14
Cc1cc(C(N)=O)cc(C)c1C[C@H](N)C(=O)N1Cc2ccccc2C[C@H]1c1nc(-c2ccccc2)c[nH]1; 7.66

[in] May I ask what pEC50 has been recorded for `NC(=O)c1ccc(C[C@H](N)C(=O)N2Cc3ccccc3C[C@H]2c2nc(-c3ccccc3)c[nH]2)cc1` ?
[out] 8.52

[in] May I ask what pEC50 has been recorded for `N[C@@H](Cc1ccc(O)cc1)C(=O)N1Cc2ccccc2C[C@H]1c1nc(-c2ccccc2)c[nH]1` ?
[out] 7.72

[in] May I ask what pEC50 has been recorded for `Cc1cc(C(N)=O)cc(C)c1C[C@H](N)C(=O)N1CCCC[C@H]1c1nc(-c2ccccc2)c[nH]1` ?
[out] 6.87

[in] May I ask what pEC50 has been recorded for `Cc1[nH]c([C@@H]2CCCCN2C(=O)[C@@H](N)Cc2ccc(O)cc2)nc1-c1ccccc1` ?
[out] 6.30

---

Experimental Target: Opioid receptors; mu & delta (Rattus norvegicus) (UniProt P33533+P33535)
Sequence (P33533 whole entry, looked up): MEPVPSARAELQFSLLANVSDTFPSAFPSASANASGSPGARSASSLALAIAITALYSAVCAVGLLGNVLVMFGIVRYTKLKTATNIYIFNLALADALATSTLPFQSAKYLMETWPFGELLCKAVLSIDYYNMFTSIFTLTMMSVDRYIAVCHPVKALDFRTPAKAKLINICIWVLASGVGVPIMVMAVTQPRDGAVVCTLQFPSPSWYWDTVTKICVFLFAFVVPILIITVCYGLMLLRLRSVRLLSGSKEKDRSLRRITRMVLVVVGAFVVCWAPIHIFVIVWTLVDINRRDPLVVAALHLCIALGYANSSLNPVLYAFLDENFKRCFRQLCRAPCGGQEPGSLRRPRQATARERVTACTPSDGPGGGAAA
Sequence (P33535 whole entry, looked up): as the sequence (P33535 whole entry) above
Assay Name: Selectivity for delta opioid receptor over mu opioid receptor
Assay type: protein assay
Mark fulfilled for Ratio Ki under 2, not fulfilled if at or over.

Examples from the recorded data:
N[C@@H](Cc1ccc(Cl)cc1)C(=O)N1Cc2ccccc2C[C@H]1c1nc(-c2ccccc2)c[nH]1; not fulfilled
CS(=O)(=O)Nc1ccc(C[C@H](N)C(=O)N2Cc3ccccc3C[C@H]2c2nc(-c3ccccc3)c[nH]2)cc1; fulfilled
Cc1[nH]c([C@@H]2Cc3ccccc3CN2C(=O)[C@@H](N)Cc2ccc(O)cc2)nc1-c1ccccc1; not fulfilled
CC(=O)Nc1ccc(C[C@H](N)C(=O)N2Cc3ccccc3C[C@H]2c2nc(C)c(-c3ccccc3)[nH]2)cc1; not fulfilled

[in] Is the reported Ratio Ki for `Cc1[nH]c([C@@H]2Cc3ccccc3CN2C(=O)[C@@H](N)Cc2ccc(C#N)cc2)nc1-c1ccccc1` strictly below 2?
[out] fulfilled

[in] Is the reported Ratio Ki for `Cc1[nH]c([C@@H]2Cc3ccccc3CN2C(=O)[C@@H](N)Cc2ccc(N)cc2)nc1-c1ccccc1` strictly below 2?
[out] not fulfilled

[in] Is the reported Ratio Ki for `N[C@@H](Cc1ccc(C(=O)O)cc1)C(=O)N1Cc2ccccc2C[C@H]1c1nc(-c2ccccc2)c[nH]1` strictly below 2?
[out] fulfilled

[in] Is the reported Ratio Ki for `N[C@@H](Cc1ccccc1)C(=O)N1CCCC[C@H]1c1nc(-c2ccccc2)c[nH]1` strictly below 2?
[out] fulfilled

[in] Is the reported Ratio Ki for `CC(=O)c1ccc(C[C@H](N)C(=O)N2Cc3ccccc3C[C@H]2c2nc(-c3ccccc3)c[nH]2)cc1` strictly below 2?
[out] not fulfilled

[in] Is the reported Ratio Ki for `N[C@@H](Cc1ccc(S(N)(=O)=O)cc1)C(=O)N1Cc2ccccc2C[C@H]1c1nc(-c2ccccc2)c[nH]1` strictly below 2?
[out] not fulfilled

[in] Is the reported Ratio Ki for `N[C@@H](Cc1ccccc1)C(=O)N1Cc2ccccc2C[C@H]1c1nc(-c2ccccc2)c[nH]1` strictly below 2?
[out] fulfilled

[in] Is the reported Ratio Ki for `Cc1cc(O)cc(C)c1C[C@H](N)C(=O)N1CCCC[C@H]1c1nc(-c2ccccc2)c[nH]1` strictly below 2?
[out] fulfilled
